Tested on: UO-31
Assay: NCI tumour cell line growth inhibition, 48 h
Calls of active or inactive are those of the source. Cut-off read from the data, not from the text of the source: active = GI50 up to about 1.1 µM and inactive = higher.
Possible outcomes: 1 for active, -1 for inactive

compound | classification
COc1ccc(Nc2nc3c(N)cc(C(F)(F)F)cc3nc2-c2ccccc2)cc1 | -1
COc1cccc(CC2Cc3ccccc3CC(=O)N2)c1 (stereo not drawn) | -1
CCCNc1[nH]c(C(C)=O)c(N)c1C(=S)Nc1ccccc1 | 1

###

Test system: SN12C
Assay: NCI tumour cell line growth inhibition, 48 h
The source made the active and inactive calls. Cut-off read from the data, not from the text of the source: active = GI50 up to about 1.1 µM and inactive = higher.
Possible outcomes: active, inactive

compound | experimental.system | classification
O=c1oc2ccccc2cc1-c1cn2c(n1)sc1ccccc12 | SN12C | inactive
C[n+]1c(-c2ccc(/C=N/NC(=S)N/N=C/c3ccc(-c4cn5ccsc5[n+]4C)cc3)cc2)cn2ccsc21 | SN12C | inactive
Cc1c(-c2ccccc2)nn2cc(-c3ccccc3)nnc12 | SN12C | inactive
Cc1ccc(C2=CC(=O)c3ccccc3C2=O)n1-c1ccccc1 | SN12C | inactive
COC1=CC(C2c3cc4c(cc3[C@@H](Nc3ccc(F)cc3)C3COC(=O)[C@H]23)OCO4)=CC(=O)C1=O (some centres not stated) | SN12C | inactive
C=Cc1c(-c2ccccc2)cnc2[nH]c3ccccc3c12 | SN12C | inactive
CCCC(O)c1cn(-c2cccc(S(=O)(=O)O)c2)nn1 (configuration not stated) | SN12C | inactive
c1cc2c(cc1C1=NCCN1)c1cc(C3=NCCN3)ccc1n2CC1CCCCC1 | SN12C | inactive
COc1cc2ccn3c4cc(OC)c(OC)cc4cc3c2cc1OC | SN12C | inactive
C[C@@H]1OC(=O)N2CCCC(=C3SCCCS3)C12 (some centres not stated) | SN12C | inactive
CCCC(=O)OC1CC(n2cc(F)c(=O)[nH]c2=O)OC1COP(=O)(OCC(Cl)(Cl)Cl)OCC(Cl)(Cl)Cl (configuration not stated) | SN12C | inactive
CC(C)(C)c1cc(Br)c(O)c(CN(Cc2cc(C(C)(C)C)cc(Br)c2O)C2CCCCC2)c1 | SN12C | inactive
O=[N+]([O-])c1cccc(C2ON2C2CCCCC2)c1 (configuration not stated) | SN12C | inactive
CC(=O)N1CN2C(=O)CCC2c2ccccc21 (configuration not stated) | SN12C | inactive
COC(OC)[C@@H]1OC[C@H](n2ccc(=O)[nH]c2=O)[C@H]1O | SN12C | inactive
O=c1c2cc(Br)ccc2nc(-c2ccccc2Cl)n1NCC1(O)OCC(O)C(O)C1O (configuration not stated) | SN12C | inactive
COc1cccc(NC(=O)CC(=O)NN2C(=O)/C(=C/c3ccc(N(CCC#N)CCC#N)cc3)N=C2c2cc([N+](=O)[O-])ccc2Cl)c1 | SN12C | inactive
c1ccc2c(CC3NCCN3)cccc2c1 | SN12C | inactive
S=C1Nc2ccccc2SC1c1ccccc1 (configuration not stated) | SN12C | inactive
C[N+](C)(C)CC(=O)N/N=C(/C=C/c1ccccc1)CC1OC(=O)c2ccccc21 (configuration not stated) | SN12C | inactive
CCN(CC)CCOc1ccccc1/C=C/c1noc2ccccc12 | SN12C | inactive
COc1cc2c(c(OC)c1OC)-c1ccc(SC)cc1[C@H](OC(=O)c1ccccc1)CC2 | SN12C | active

Reference for the values: ChEMBL document CHEMBL1201862
